# System: Bacillus subtilis (ATCC 6633)
# Assay type: cell-based
# run.conditions: ATCC 6633, 24 h
Where a SMILES comes first, the peptide text is derived from it. The star is where a group is joined. Palmitoyl = CCCCCCCCCCCCCCCC(=O)*; Myristoyl = CCCCCCCCCCCCCC(=O)*; Lauroyl = CCCCCCCCCCCC(=O)*; Decanoyl = CCCCCCCCCC(=O)*; Octanoyl = CCCCCCCC(=O)*
Give measured MBC Bacillus subtillis for each item. Keep answers brief.
I only need the number, in µg/mL, no unit after it.

-- ask Identify measured MBC Bacillus subtillis corresponding to CCCCCCCCCC(=O)N[C@@H](CCCCN)C(=O)N[C@@H](CCCCN)C(N)=O
-- reply 512

-- ask Identify measured MBC Bacillus subtillis corresponding to CCCCCCCCCCCCCC(=O)N[C@@H](CCCCN)C(=O)NCC(=O)N[C@@H](CCCCN)C(N)=O [C14-KGK-NH2] (Myristoyl-Lys-Gly-Lys-NH2)
-- reply 8

-- ask Identify measured MBC Bacillus subtillis corresponding to CCCCCCCCCCCCCCCC(=O)N[C@@H](CCCCN)C(=O)N[C@@H](CCCCN)C(N)=O
-- reply 4

-- ask Identify measured MBC Bacillus subtillis corresponding to CCCCCCCCCCCCCCCC(=O)N[C@@H](CCCCN)C(=O)N[C@@H](CCCCN)C(=O)N[C@@H](CCCCN)C(=O)N[C@@H](CCCCN)C(N)=O [C16-KKKK-NH2] (Palmitoyl-KKKK-NH2)
-- reply 4

-- ask Identify measured MBC Bacillus subtillis corresponding to CCCCCCCCCCCC(=O)N[C@@H](CCCCN)C(=O)NCC(=O)N[C@@H](CCCCN)C(N)=O [C12-KGK-NH2] (Lauroyl-Lys-Gly-Lys-NH2)
-- reply 1000

-- ask Identify measured MBC Bacillus subtillis corresponding to CCCCCCCCCC(=O)N[C@@H](CCCCN)C(=O)NCC(N)=O [C10-KG-NH2] (Decanoyl-Lys-Gly-NH2)
-- reply 512

-- ask Identify measured MBC Bacillus subtillis corresponding to CCCCCCCCCCCCCC(=O)N[C@@H](CCCCN)C(=O)N[C@@H](CCCCN)C(=O)N[C@@H](CCCCN)C(=O)N[C@@H](CCCCN)C(N)=O [C14-KKKK-NH2] (Myristoyl-KKKK-NH2)
-- reply 4

-- ask Identify measured MBC Bacillus subtillis corresponding to CCCCCCCCCCCCCCCC(=O)N[C@@H](CCCCN)C(=O)NCC(=O)N[C@@H](CCCCN)C(N)=O [C16-KGK-NH2] (Palmitoyl-Lys-Gly-Lys-NH2)
-- reply 4

-- ask Identify measured MBC Bacillus subtillis corresponding to CCCCCCCCCC(=O)N[C@@H](CCCCN)C(=O)NCC(=O)N[C@@H](CCCCN)C(=O)NCC(N)=O [C10-KGKG-NH2] (Decanoyl-KGKG-NH2)
-- reply 1000

-- ask Identify measured MBC Bacillus subtillis corresponding to CCCCCCCCCC(=O)N[C@@H](CCCCN)C(=O)N[C@@H](CCCCN)C(=O)N[C@@H](CCCCN)C(=O)N[C@@H](CCCCN)C(N)=O [C10-KKKK-NH2] (Decanoyl-KKKK-NH2)
-- reply 128

-- ask Identify measured MBC Bacillus subtillis corresponding to CCCCCCCC(=O)N[C@@H](CCCCN)C(=O)NCC(=O)N[C@@H](CCCCN)C(N)=O [C8-KGK-NH2] (Octanoyl-Lys-Gly-Lys-NH2)
-- reply 1000

-- ask Identify measured MBC Bacillus subtillis corresponding to CCCCCCCCCCCCCC(=O)N[C@@H](CCCCN)C(=O)N[C@@H](CCCCN)C(=O)N[C@@H](CCCCN)C(N)=O
-- reply 4

-- ask Identify measured MBC Bacillus subtillis corresponding to CCCCCCCCCCCCCCCC(=O)N[C@@H](CCCCN)C(=O)NCC(N)=O [C16-KG-NH2] (Palmitoyl-Lys-Gly-NH2)
-- reply 4

-- ask Identify measured MBC Bacillus subtillis corresponding to CCCCCCCCCCCC(=O)N[C@@H](CCCCN)C(=O)N[C@@H](CCCCN)C(=O)N[C@@H](CCCCN)C(=O)N[C@@H](CCCCN)C(N)=O [C12-KKKK-NH2] (Lauroyl-KKKK-NH2)
-- reply 256

-- ask Identify measured MBC Bacillus subtillis corresponding to CCCCCCCCCCCCCCCC(=O)N[C@@H](CCCCN)C(=O)N[C@@H](CCCCN)C(=O)N[C@@H](CCCCN)C(N)=O
-- reply 8
